Would you kindly list protein stability index for each of these variants?
B1: ATL3 (parent)
chain: EKALASILLQDHIRDLDVVVVSVA

# Variants of: B1
# experiment-summary: protein stability index of a GFP-peptide fusion (GPS, HEK-293T) (PSI 1-6); higher = more stable;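 also: lentivirally expressed fusions sorted by FACS into six bins by GFP to DsRed ratio, PSI derived from sequencing read proportions per bin multiplied by bin number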
# experimental-parameters: c terminus: a fixed tail appended
One number for each entry.

Solved entries (count: 10):
mutant-id	protein stability index
V23D	3.01
A5V	2.9
A24C	4.82
A5N	3.63
V21H	1.51
L4H	1.05
L8Q	2.63
D17A	3.11
H12E	2.17
V19D	3.81

Quick batch: protein stability index for everything below.
1. E1H
2. V20A
3. S22E
4. L4D
5. I7H

1. 2.05
2. 1.58
3. 2.86
4. 2.61
5. 2.31
